The compounds listed here are annotated with their pIC50.
Tested on: PBMC from healthy human donors
method.description: T cell proliferation assay (PHA-stimulated human PBMC, BrdU ELISA)
Assay type: cell-based
condition.parameters: human PBMC, 2 μg/ml PHA, 48 hours, read-out: D: IC50 (Tcell proliferation)
pIC50: −log10 of the molar value.

Use these answered entries as a reference point.
Fc1cccc(Cl)c1-c1noc(-c2cnn(-c3cccc(Cl)c3)c2C(F)(F)F)c1-c1nccs1 > 8.00
Fc1cccc(Cl)c1-c1noc(-c2cnn(-c3cccc(Cl)c3)c2C(F)(F)F)c1-c1ccoc1 > 8.00
Cc1nnc(-c2c(-c3c(F)cccc3Cl)noc2-c2cnn(-c3ccccc3Cl)c2C(F)(F)F)o1 5.00 to 6.00
COc1cccc(Cl)c1-c1noc(-c2cnn(-c3ccccc3Cl)c2C(F)(F)F)c1-c1cnco1 6.00 to 7.00
Cc1nnc(-c2c(-c3c(F)cccc3Cl)noc2-c2cnn(-c3ccccc3F)c2C(F)(F)F)o1 6.00 to 7.00
NS(=O)(=O)c1cccc(-n2ncc(-c3onc(-c4c(F)cccc4Cl)c3-c3nnco3)c2C(F)(F)F)c1 5.00 to 6.00

[Q] If you can, please state the reported pIC50 value of Oc1csc(-c2c(-c3c(F)cccc3Cl)noc2-c2cnn(-c3cccc(F)c3)c2C(F)(F)F)n1 .
[A] 6.00 to 7.00

* * *

The molecules listed here are annotated with their IC50.
System: PBMC from healthy human donors
method.description: T cell proliferation assay (PHA-stimulated human PBMC, BrdU ELISA)
Format: cell-based
condition.parameters: human PBMC, 2 μg/ml PHA, 48 hours, read-out: D: IC50 (Tcell proliferation)

Use these answered entries as a reference point.
Fc1cccc(Cl)c1-c1noc(-c2cnn(-c3cccc(Cl)c3)c2C(F)(F)F)c1-c1ccco1 < 10 nM
Fc1cccc(-n2ncc(-c3onc(-c4c(F)cccc4Cl)c3-c3ccsc3)c2C(F)(F)F)c1 < 10 nM
Cc1nnc(-c2c(-c3c(F)cccc3Cl)noc2-c2cnn(-c3ccccc3Cl)c2C(F)(F)F)s1 100 to 1000 nM

[Q] If you can, please state the reported IC50 value of CC(C)Cn1ncc(-c2onc(-c3c(F)cccc3Cl)c2-c2nnn[nH]2)c1C(F)(F)F .
[A] 1000 to 10000 nM

[Q] Another: Fc1cccc(Cl)c1-c1noc(-c2cnn(-c3ccncc3)c2C(F)(F)F)c1-c1nnco1
[A] 100 to 1000 nM

[Q] Another: Cc1nnc(-c2c(-c3c(F)cccc3Cl)noc2-c2cnn(-c3ccccn3)c2C(F)(F)F)o1
[A] 100 to 1000 nM

[Q] Another: Fc1ccccc1-n1ncc(-c2onc(-c3c(F)cccc3Cl)c2-c2nccs2)c1C(F)(F)F
[A] 10 to 100 nM

* * *

The compounds listed here are annotated with their pIC50.
Tested on: IL-17FF
method.description: IL-17FF production by PHA-stimulated human PBMC (human IL-17F ELI-Pair)
Type: cell-based
condition.parameters: human PBMC, 2 μg/ml PHA, 48 hours; read-out: B: IC50 (IL-17FF)
pIC50: −log10 of the molar value.

Fc1cccc(Cl)c1-c1noc(-c2cnn(-c3cccc(Cl)c3)c2C(F)(F)F)c1-c1nnn[nH]1 5.00 to 6.00
Cc1nnc(-c2c(-c3c(F)cccc3Cl)noc2-c2cnn(-c3ccccc3F)c2C(F)(F)F)s1 7.00 to 8.00
Fc1cccc(Cl)c1-c1noc(-c2cnn(-c3cccc(Cl)c3)c2C(F)(F)F)c1-c1nccs1 > 8.00

[Q] If you can, please state the reported pIC50 value of Cc1nnc(-c2c(-c3c(F)cccc3Cl)noc2-c2cnn(-c3cccc(S(N)(=O)=O)c3)c2C(F)(F)F)s1 .
[A] 5.00 to 6.00

[Q] Another: COC(=O)c1csc(-c2c(-c3c(F)cccc3Cl)noc2-c2cnn(-c3cccc(F)c3)c2C(F)(F)F)n1
[A] 7.00 to 8.00

[Q] Another: Fc1cccc(Cl)c1-c1noc(-c2cnn(-c3ccncc3)c2C(F)(F)F)c1-c1cnco1
[A] 5.00 to 6.00

[Q] Another: Fc1cccc(Cl)c1-c1noc(-c2cnn(-c3cccnc3)c2C(F)(F)F)c1-c1cnco1
[A] 5.00 to 6.00

[Q] Another: Cc1nnc(-c2c(-c3c(F)cccc3Cl)noc2-c2cnn(-c3cccnc3)c2C(F)(F)F)s1
[A] 7.00 to 8.00

[Q] Another: Fc1cccc(Cl)c1-c1noc(-c2cnn(-c3ccccn3)c2C(F)(F)F)c1-c1nnco1
[A] 6.00 to 7.00

[Q] Another: Fc1cccc(-n2ncc(-c3onc(-c4c(F)cccc4Cl)c3-c3nnc(C(F)(F)F)o3)c2C(F)(F)F)c1
[A] 7.00 to 8.00

[Q] Another: COc1cccc(Cl)c1-c1noc(-c2cnn(-c3ccccc3Cl)c2C(F)(F)F)c1-c1cnco1
[A] 6.00 to 7.00

[Q] Another: CC(=O)Nc1cccc(-n2ncc(-c3onc(-c4c(F)cccc4Cl)c3-c3nnco3)c2C(F)(F)F)c1
[A] 5.00 to 6.00

[Q] Another: Fc1ccccc1-n1ncc(-c2onc(-c3c(F)cccc3Cl)c2-c2ccoc2)c1C(F)(F)F
[A] 7.00 to 8.00

[Q] Another: Fc1cccc(Cl)c1-c1noc(-c2cnn(-c3cccc(Cl)c3)c2C(F)(F)F)c1-c1nncs1
[A] > 8.00

[Q] Another: Fc1cccc(-n2ncc(-c3onc(-c4c(F)cccc4Cl)c3-c3ccsc3)c2C(F)(F)F)c1
[A] 6.00 to 7.00

* * *

The compounds listed here are annotated with their IC50.
Test system: IL-17FF
method.description: IL-17FF production by PHA-stimulated human PBMC (human IL-17F ELI-Pair)
Format: cell-based
condition.parameters: human PBMC, 2 μg/ml PHA, 48 hours; read-out: B: IC50 (IL-17FF)

Use these answered entries as a reference point.
Fc1ccccc1-n1ncc(-c2onc(-c3c(F)cccc3Cl)c2-c2cnco2)c1C(F)(F)F 0.1 to 1 µM
Cc1nnc(-c2c(-c3c(F)cccc3Cl)noc2-c2cnn(-c3cccc(Cl)c3)c2C(F)(F)F)o1 < 0.01 µM
Cc1nnc(-c2c(-c3c(F)cccc3Cl)noc2-c2cnn(-c3cccnc3)c2C(F)(F)F)o1 0.1 to 1 µM
Fc1ccccc1-n1ncc(-c2onc(-c3c(F)cccc3Cl)c2-c2nnco2)c1C(F)(F)F 0.1 to 1 µM
Fc1cccc(Cl)c1-c1noc(-c2cnn(-c3cccnc3)c2C(F)(F)F)c1-c1nnco1 0.1 to 1 µM
Fc1cccc(Cl)c1-c1noc(-c2cnn(-c3ccccc3Cl)c2C(F)(F)F)c1-c1nccs1 1 to 10 µM
NS(=O)(=O)c1cccc(-n2ncc(-c3onc(-c4c(F)cccc4Cl)c3-c3nnco3)c2C(F)(F)F)c1 1 to 10 µM
Fc1cccc(-n2ncc(-c3onc(-c4c(F)cccc4Cl)c3-c3ccccc3)c2C(F)(F)F)c1 0.1 to 1 µM
Cc1nnc(-c2c(-c3c(F)cccc3Cl)noc2-c2cnn(-c3cccc(Cl)c3)c2C(F)(F)F)s1 < 0.01 µM
Cc1nnc(-c2c(-c3c(F)cccc3Cl)noc2-c2cnn(-c3ccccc3F)c2C(F)(F)F)o1 0.1 to 1 µM

[Q] If you can, please state the reported IC50 value of Cc1nnc(-c2c(-c3c(F)cccc3Cl)noc2-c2cnn(-c3ccncc3)c2C(F)(F)F)o1 .
[A] 0.1 to 1 µM

[Q] Another: CCOC(=O)c1csc(-c2c(-c3c(F)cccc3Cl)noc2-c2cnn(-c3cccc(F)c3)c2C(F)(F)F)n1
[A] 0.1 to 1 µM

* * *

The compounds listed here are annotated with their pIC50.
Test system: IFN-γ
method.description: IFN-γ production by PHA-stimulated human PBMC (OptEIA human IFN-g ELISA)
Format: cell-based
condition.parameters: human PBMC, 2 μg/ml PHA, 48 hours; read-out: C: IC50 (IFNγ)
pIC50: −log10 of the molar value.

Use these answered entries as a reference point.
compound	assay.result
Fc1ccccc1-n1ncc(-c2onc(-c3c(F)cccc3Cl)c2-c2ccoc2)c1C(F)(F)F [Example B-9]	6.00 to 7.00
Cc1nnc(-c2c(-c3c(F)cccc3Cl)noc2-c2cnn(-c3ccncc3)c2C(F)(F)F)s1 [Example B-22]	7.00 to 8.00
Cc1nnc(-c2c(-c3c(F)cccc3Cl)noc2-c2cnn(-c3cccc(Cl)c3)c2C(F)(F)F)s1 [Example B-3]	> 8.00
CC(=O)Nc1cccc(-n2ncc(-c3onc(-c4c(F)cccc4Cl)c3-c3nnco3)c2C(F)(F)F)c1 [Example B-13]	5.00 to 6.00
Oc1csc(-c2c(-c3c(F)cccc3Cl)noc2-c2cnn(-c3cccc(F)c3)c2C(F)(F)F)n1 [Example 9]	6.00 to 7.00

[Q] Provide the documented pIC50 with IFN-γ as the system for Cc1nnc(-c2c(-c3c(F)cccc3Cl)noc2-c2cnn(-c3ccccc3F)c2C(F)(F)F)o1 [Example 11]
[A] 7.00 to 8.00

[Q] Another: Fc1cccc(-n2ncc(-c3onc(-c4c(F)cccc4Cl)c3-c3ccoc3)c2C(F)(F)F)c1 [Example 13]
[A] 5.00 to 6.00

[Q] Another: Fc1cccc(Cl)c1-c1noc(-c2cnn(-c3cccc(Cl)c3)c2C(F)(F)F)c1-c1ccco1 [Example B-6]
[A] > 8.00

[Q] Another: CC(=O)Nc1cccc(-n2ncc(-c3onc(-c4c(F)cccc4Cl)c3-c3nnc(C)s3)c2C(F)(F)F)c1 [Example B-12]
[A] 6.00 to 7.00

[Q] Another: Fc1cccc(-n2ncc(-c3onc(-c4c(F)cccc4Cl)c3-c3ccsc3)c2C(F)(F)F)c1 [Example 16]
[A] > 8.00

[Q] Another: Fc1cccc(Cl)c1-c1noc(-c2cnn(-c3cccnc3)c2C(F)(F)F)c1-c1cnco1 [Example B-32]
[A] 6.00 to 7.00

[Q] Another: Cc1nnc(-c2c(-c3c(F)cccc3Cl)noc2-c2cnn(-c3ccccn3)c2C(F)(F)F)s1 [Example B-27]
[A] 7.00 to 8.00

[Q] Another: Fc1cccc(-n2ncc(-c3onc(-c4c(F)cccc4Cl)c3-c3ccco3)c2C(F)(F)F)c1 [Example 17]
[A] > 8.00

[Q] Another: CC(=O)Nc1cccc(-n2ncc(-c3onc(-c4c(F)cccc4Cl)c3-c3nnc(C)o3)c2C(F)(F)F)c1 [Example B-11]
[A] 6.00 to 7.00

[Q] Another: Fc1cccc(Cl)c1-c1noc(-c2cnn(-c3ccccc3Cl)c2C(F)(F)F)c1-c1nccs1 [Example B-29]
[A] 6.00 to 7.00
